Readings of CC50 at 5 days for the listed molecules
assay_explanation: Cytotoxicity in mock-infected MT-4 cells (MTT method)
Assay type: cell-based
test_context: human, CC50
Protocol: The antiviral potential and cytotoxic effects of the target compounds were assessed using the MTT assay in MT-4 cells, following established protocols. The HIV-1 (IIIB) strain, single mutant strains (L100I, K103N, Y181C, Y188L and E138K), double mutant strains (F227L + V106A and K103N + Y181C) and MT-4 cells were provided by the Rega Institute of Medicine at the University of Leuven, Belgium. These viral strains were propagated in MT-4 cells. […]
State the answer as a number, implicitly in µM.

Cc1cc(C#N)cc(C)c1Oc1nc(Nc2ccc(NC(=O)[C@H](Cc3cn(C(=O)OC(C)(C)C)cn3)NC(=O)OC(C)(C)C)cc2)nc2ccsc12 : 19.6
Cc1cc(C#N)cc(C)c1Oc1nc(Nc2ccc(NC(=O)C(N)Cc3c[nH]c4ccccc34)cc2)nc2ccsc12 (centres unmarked) : 22.4
Cc1cc(C#N)cc(C)c1Oc1nc(Nc2ccc(NC(=O)[C@@H](N)Cc3c[nH]cn3)cc2)nc2ccsc12 : 25.1
Cc1cc(C#N)cc(C)c1Oc1nc(Nc2ccc(NC(=O)[C@H](N)CC(C)C)cc2)nc2ccsc12 : 24.3
Cc1cc(C#N)cc(C)c1Oc1nc(Nc2ccc(NC(=O)[C@@H](N)C(C)C)cc2)nc2ccsc12 : 6.54

Below: the item to evaluate.
Reported CC50 at 5 days, molecule "CNCC(=O)Nc1ccc(Nc2nc(Oc3c(C)cc(C#N)cc3C)c3sccc3n2)cc1" : ____
17.3

----------
Readings of melting point for the listed compounds

Cc1cc(C#N)cc(C)c1Oc1nc(Nc2ccc(NC(=O)[C@@H](N)Cc3ccccc3)cc2)nc2ccsc12 : 203 to 206 °C
CNCC(=O)Nc1ccc(Nc2nc(Oc3c(C)cc(C#N)cc3C)c3sccc3n2)cc1 : 171 to 173 °C
Cc1cc(C#N)cc(C)c1Oc1nc(Nc2ccc(NC(=O)[C@H](Cc3ccccc3)NC(=O)OC(C)(C)C)cc2)nc2ccsc12 : 220 to 222 °C
Cc1cc(C#N)cc(C)c1Oc1nc(Nc2ccc(NC(=O)C(Cc3c[nH]c4ccccc34)NC(=O)OC(C)(C)C)cc2)nc2ccsc12 (centres unmarked) : 205 to 208 °C
Cc1cc(C#N)cc(C)c1Oc1nc(Nc2ccc(NC(=O)[C@@H](NC(=O)OC(C)(C)C)C(C)C)cc2)nc2ccsc12 : 158 to 160 °C

Reported melting point, compound Cc1cc(C#N)cc(C)c1Oc1nc(Nc2ccc(NC(=O)C3CCCN3)cc2)nc2ccsc12 (centres unmarked) : ____
227 to 230 °C

Reported melting point, compound "Cc1cc(C#N)cc(C)c1Oc1nc(Nc2ccc(NC(=O)[C@@H](N)Cc3c[nH]cn3)cc2)nc2ccsc12" : ____
158 to 160 °C

Reported melting point, compound "Cc1cc(C#N)cc(C)c1Oc1nc(Nc2ccc(NC(=O)[C@H](Cc3cn(C(=O)OC(C)(C)C)cn3)NC(=O)OC(C)(C)C)cc2)nc2ccsc12" : ____
236 to 238 °C

Reported melting point, compound Cc1cc(C#N)cc(C)c1Oc1nc(Nc2ccc(NC(=O)C3CCCN3C(=O)OC(C)(C)C)cc2)nc2ccsc12 (centres unmarked) : ____
236 to 238 °C

Reported melting point, compound Cc1cc(C#N)cc(C)c1Oc1nc(Nc2ccc(NC(=O)C(N)Cc3c[nH]c4ccccc34)cc2)nc2ccsc12 (centres unmarked) : ____
224 to 227 °C

Reported melting point, compound "Cc1cc(C#N)cc(C)c1Oc1nc(Nc2ccc(NC(=O)[C@@H](N)C(C)C)cc2)nc2ccsc12" : ____
184 to 187 °C

Origin of the recorded values: paper PMC11354745
